- target.system: CDK7/CycH/MNAT1 (Homo sapiens (Human), UniProt P50613)
- Sequence (P50613 whole entry): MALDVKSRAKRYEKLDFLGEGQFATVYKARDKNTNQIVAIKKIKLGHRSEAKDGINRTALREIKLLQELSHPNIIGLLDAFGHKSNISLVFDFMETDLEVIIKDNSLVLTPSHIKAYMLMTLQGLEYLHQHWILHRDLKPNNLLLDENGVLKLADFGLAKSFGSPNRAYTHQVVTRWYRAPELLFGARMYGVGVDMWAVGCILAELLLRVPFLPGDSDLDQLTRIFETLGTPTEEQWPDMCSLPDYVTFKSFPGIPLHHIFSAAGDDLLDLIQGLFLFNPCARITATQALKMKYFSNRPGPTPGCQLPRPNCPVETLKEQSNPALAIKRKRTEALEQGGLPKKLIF
- Sequence (P51946 whole entry partner): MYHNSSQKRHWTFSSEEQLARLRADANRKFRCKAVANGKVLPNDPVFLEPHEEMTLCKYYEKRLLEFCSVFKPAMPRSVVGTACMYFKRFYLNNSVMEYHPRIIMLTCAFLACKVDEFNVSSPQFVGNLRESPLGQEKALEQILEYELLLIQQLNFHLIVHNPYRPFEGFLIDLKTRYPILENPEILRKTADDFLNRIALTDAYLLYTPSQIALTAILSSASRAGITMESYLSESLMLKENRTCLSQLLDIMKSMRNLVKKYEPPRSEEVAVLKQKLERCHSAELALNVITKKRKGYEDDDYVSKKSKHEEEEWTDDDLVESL
- Sequence (P51948 whole entry partner): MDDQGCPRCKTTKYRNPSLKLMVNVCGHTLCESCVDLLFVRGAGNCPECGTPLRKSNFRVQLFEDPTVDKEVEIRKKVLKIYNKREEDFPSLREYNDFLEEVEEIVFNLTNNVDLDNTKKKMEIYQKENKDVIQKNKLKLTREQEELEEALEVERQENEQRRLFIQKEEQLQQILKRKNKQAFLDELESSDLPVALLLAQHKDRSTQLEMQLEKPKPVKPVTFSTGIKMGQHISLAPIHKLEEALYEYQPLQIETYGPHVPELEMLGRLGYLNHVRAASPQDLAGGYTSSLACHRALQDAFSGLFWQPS
- experimental.protocol: Biochemical assay for CDK7 (TR-FRET kinase assay)
- run.conditions: 60 min pre-incubation; 1 mM ATP; read-out: IC50
pIC50: −log10 of the molar value.
What pIC50 was measured for each of the following?

Recorded results for 3 compounds are shown here.
CC(C)c1cnn2c(NCc3cccc(NC/C=C/C(=O)N(C)C)c3)nc(NC3CCOCC3)nc12: < 6.00
C=CC(=O)N1CCC1C(=O)Nc1cc(CNc2nc(NC3CCOCC3)nc3c(C(C)C)cnn23)ccc1C (stereo not shown): > 6.52
C=CC(=O)N1CCC(C(=O)Nc2cccc(Nc3nc(OC4CCN(C)CC4)nc4c(C(C)C)cnn34)c2)CC1: > 6.52

Q: Endpoint output: pIC50 of C=CC(=O)N1CCC1C(=O)Nc1ccc(C)c(CNc2nc(NC3CCOCC3)nc3c(C(C)C)cnn23)c1 (stereo not shown) . Value?
A: > 6.52

* * *

- target.system: CDK7/CycH/MNAT1 (Homo sapiens (Human), UniProt P50613)
- experimental.protocol: Biochemical assay for CDK7 (TR-FRET kinase assay)
- run.conditions: 60 min pre-incubation; 1 mM ATP; read-out: IC50
- Description: The ability of compounds to inhibit CDK7 kinase activity was tested in a TR-FRET assay using 5 nM of CDK7/CycH/MNAT1 obtained from Invitrogen, USA. Test compounds were pre-incubated with the kinase at room temperature for 60 min. […] 1 nM Eu-labelled antiphospho-MBP antibody [Perkin Elmer, USA] was added, mixed well and the fluorescence emission at 615 nm and 665 nm [excitation at 340 nm] was measured. […] All the fluorescence measurements were made in a Victor 3 Multilabel Counter [Perkin Elmer, USA]. […]
Task for the reader: assign each of the following compounds its reported IC50.

CC(C)c1cnn2c(Nc3cccc(NC(=O)c4ccc(NC(=O)/C=C/CN(C)C)cc4)c3)nc(OC3CCN(C)CC3)nc12: < 300 nM
CC(C)c1cnn2c(NCc3cc(F)cc(NC(=O)/C=C/CN4CCOCC4)c3)nc(NC3CCOCC3)nc12: > 1000 nM
C=CC(=O)N1CCC(C(=O)Nc2cccc(CNc3nc(OC4CCN(C)CC4)nc4c(C(C)C)cnn34)c2)CC1: < 300 nM

Q: Give its IC50 value. Item: C=CC(=O)N1CCC1C(=O)Nc1cccc(CNc2nc(NC3CCOCC3)nc3c(C(C)C)cnn23)c1F (stereo not shown)
A: < 300 nM

* * *

- target.system: CDK7/CycH/MNAT1 (Homo sapiens (Human))
- experimental.protocol: Biochemical assay for CDK7 (TR-FRET kinase assay)
- run.conditions: 60 min pre-incubation; 1 mM ATP; read-out: IC50
pIC50: −log10 of the molar value.
Please provide measured pIC50 for the entries that follow.

Parameter requested: pIC50. Apply to each item below.
1. C=CC(=O)N[C@H]1CC[C@@H](C(=O)Nc2cccc(CNc3nc(NC4CCCC(O)C4)nc4c(C(C)C)cnn34)c2)CC1 (single isomer, unassigned) [Compound 11]
2. C=CC(=O)N1CCC1C(=O)Nc1ccc(F)c(CNc2nc(NC3CCOCC3)nc3c(C(C)C)cnn23)c1 (stereo not shown)
3. C=CC(=O)N1CCCC(C(=O)Nc2cccc(C(C)Nc3nc(NC4CCOCC4)nc4c(C(C)C)cnn34)c2)C1 (stereo not shown)
4. C=CC(=O)N1CC[C@@H]1C(=O)Nc1cccc(CNc2nc(NC3CCOCC3)nc3c(C(C)C)cnn23)c1

A:
6.00 to 6.52
> 6.52
< 6.00
> 6.52

Fill in pIC50 for each of the 6 compounds listed.
1. C=CC(=O)N1CCC(C(=O)Nc2cccc(CNc3nc(OCCCCN)nc4c(C(C)C)cnn34)c2)CC1
2. C=CC(=O)N1CCCCC1C(=O)Nc1cccc(CNc2nc(NC3CCOCC3)nc3c(C(C)C)cnn23)c1F (stereo not shown)
3. C=CC(=O)N1CCCC(NC(=O)c2cccc(Nc3nc(OC4CCN(C)CC4)nc4c(C(C)C)cnn34)c2)C1 (stereo not shown)
4. CC(C)c1cnn2c(NCc3ccc(F)c(NC(=O)C4CCCN(C(=O)/C=C/CN(C)C)C4)c3)nc(OC3CCN(C)CC3)nc12 (stereo not shown)
5. CC(C)c1cnn2c(NCc3cc(NC(=O)C4CCN(C(=O)/C=C/CN(C)C)C4)ccc3F)nc(NC3CCOCC3)nc12 (stereo not shown)
6. C=CC(=O)N1CCOCC1C(=O)Nc1cccc(CNc2nc(OC3CCN(C)CC3)nc3c(C(C)C)cnn23)c1 (stereo not shown)

A:
["> 6.52", "> 6.52", "> 6.52", "> 6.52", "6.00 to 6.52", "> 6.52"]

* * *

- target.system: CDK7/CycH/MNAT1 (Homo sapiens (Human))
- experimental.protocol: Biochemical assay for CDK7 (TR-FRET kinase assay)
- run.conditions: 10 μM compound; 60 min pre-incubation; 1 mM ATP
Label YES for high-side % inhibition @ 10 μM (at or above 90%) and NO for low-side % inhibition @ 10 μM (below it).

Below, 3 molecules whose answers are already recorded.
C=CC(=O)N1CCC(C(=O)Nc2cccc(CNc3nc(OC4CCN(C)CC4)nc4c(C(C)C)cnn34)c2)C1 (single isomer, unassigned) [Compound 110]: YES
C=CC(=O)N1CCC(C(=O)Nc2cccc(CNc3nc(NC4CCCC(O)C4)nc4c(C(C)C)cnn34)c2)C1 (single isomer, unassigned) [Compound 13]: YES
C=CC(=O)N[C@H]1CC[C@@H](C(=O)Nc2cccc(CNc3nc(OC4CCOCC4F)nc4c(C(C)C)cnn34)c2)CC1 (single isomer, unassigned) [Compound 99]: NO

Q: Say whether C=CC(=O)N[C@H]1CC[C@@H](C(=O)Nc2cccc(Nc3nc(NC4CCOCC4)nc4c(C(C)C)cnn34)c2)CC1 [Compound 87] shows % inhibition @ 10 μM of 90% or more.
A: NO

* * *

Give IC50 for every item shown.
- target.system: CDK7/CycH/MNAT1 (Homo sapiens (Human), UniProt P50613)
- experimental.protocol: Biochemical assay for CDK7 (TR-FRET kinase assay)
- run.conditions: 60 min pre-incubation; 1 mM ATP; read-out: IC50

CC(C)c1cnn2c(Nc3cccc(NC(=O)C4CCC(NC(=O)/C=C/CN(C)C)CC4)c3)nc(OC3CCN(C)CC3)nc12 (stereo not drawn) [Compound 131]: 300 to 1000 nM
C=CC(=O)N1CCC(C(=O)Nc2cccc(CNc3nc(OC4CCN(C)CC4)nc4c(C(C)C)cnn34)c2)C1 (single isomer, unassigned) [Compound 109]: < 300 nM
CC(C)c1cnn2c(NCc3ccc(F)c(NC(=O)C4CCN(C(=O)/C=C/CN(C)C)C4)c3)nc(NC3CCOCC3)nc12 (stereo not drawn) [Compound 64]: 300 to 1000 nM
C=CC(=O)N1CCC(C(=O)Nc2cccc(CNc3nc(OCC(C)C)nc4c(C(C)C)cnn34)c2)C1 (stereo not drawn) [Compound 102]: 300 to 1000 nM
CC(C)c1cnn2c(NCc3cccc(NC(=O)C4CCN(C(=O)/C=C/CN(C)C)C4)c3)nc(NC3CCOCC3)nc12 (stereo not drawn) [Compound 69]: < 300 nM
CC(C)c1cnn2c(NCc3cccc(NC(=O)C4COCCN4C(=O)/C=C/CN(C)C)c3)nc(NC3CCOCC3)nc12 (stereo not drawn) [Compound 73]: < 300 nM
C=CC(=O)N1CC(C(=O)Nc2cccc(CNc3nc(NC4CCOCC4)nc4c(C(C)C)cnn34)c2)C1 [Compound 18]: < 300 nM
C#CC(=O)N1CCOCC1C(=O)Nc1cccc(CNc2nc(NC3CCOCC3)nc3c(C(C)C)cnn23)c1 (stereo not drawn) [Compound 25]: < 300 nM

For each entry beneath this line, provide reported IC50.
1. C=CC(=O)N1CCCC(C(=O)Nc2cccc(CNc3nc(OC4CCOCC4)nc4c(C(C)C)cnn34)c2)C1 (stereo not drawn) [Compound 96]
2. C=CC(=O)N1CCC(C(=O)Nc2cccc(CNc3nc(OCCOC)nc4c(C(C)C)cnn34)c2)C1 (stereo not drawn) [Compound 103]
3. C=CC(=O)NC(C)(C)C(=O)Nc1cccc(CNc2nc(NC3CCOCC3)nc3c(C(C)C)cnn23)c1 [Compound 82]
4. COC/C=C/C(=O)N1CCC(C(=O)Nc2cccc(CNc3nc(NC4CCOCC4)nc4c(C(C)C)cnn34)c2)C1 (stereo not drawn) [Compound 68]
5. C=CC(=O)N[C@H]1CC[C@@H](C(=O)Nc2cc(CNc3nc(OC4CCN(C)CC4)nc4c(C(C)C)cnn34)ccc2F)CC1 [Compound 118]
6. CCN(CC)C/C=C/C(=O)Nc1cccc(CNc2nc(NC3CCOCC3)nc3c(C(C)C)cnn23)c1 [Compound 50]
7. C#CC(=O)N1CCC1C(=O)Nc1cccc(CNc2nc(NC3CCOCC3)nc3c(C(C)C)cnn23)c1 (stereo not drawn) [Compound 66]

A:
1: 300 to 1000 nM; 2: > 1000 nM; 3: 300 to 1000 nM; 4: 300 to 1000 nM; 5: 300 to 1000 nM; 6: < 300 nM; 7: < 300 nM
